assay: Safety evaluation: single dose 100 mg/kg by gavage, one week observation; assay type: in vivo, ICR mouse; conditions: normal ICR mouse, 100 mg/kg single dose, 1 d after administration
Kindly supply the reported food consumption values for the records listed here.

Enquiry: food consumption for COC(=O)c1cc2nc(N3CCCC(N)C3)n(Cc3ccccc3C#N)c(=O)c2s1 (stereo not shown) ?
Return: 18.4 g · day^−1 · cage^−1

Enquiry: And what about the compound N#Cc1ccccc1Cn1c(N2CCC[C@@H](N)C2)nc2cc(C(Br)Br)sc2c1=O ?
Return: 19.3 g · day^−1 · cage^−1

Enquiry: And what about the compound COC(=O)c1csc2c(=O)n(Cc3ccccc3C#N)c(N3CCC[C@@H](N)C3)nc12 ?
Return: 21.2 g · day^−1 · cage^−1

Enquiry: And what about the compound N#Cc1ccccc1Cn1c(N2CCC[C@@H](N)C2)nc2c(CO)csc2c1=O ?
Return: 18.7 g · day^−1 · cage^−1

###

assay: Safety evaluation: single dose 100 mg/kg by gavage, one week observation; assay type: in vivo, ICR mouse; settings: normal ICR mouse, 100 mg/kg single dose, before administration
Kindly supply the reported food consumption values for the records listed here.
# value in g · day^−1 · cage^−1; strip the unit string

Enquiry: food consumption for N#Cc1ccccc1Cn1c(N2CCC[C@@H](N)C2)nc2cc(C(Br)Br)sc2c1=O ?
Return: 20.8

Enquiry: And what about the molecule COC(=O)c1cc2nc(N3CCCC(N)C3)n(Cc3ccccc3C#N)c(=O)c2s1 (stereo not shown) ?
Return: 21.4

Enquiry: And what about the molecule COC(=O)c1csc2c(=O)n(Cc3ccccc3C#N)c(N3CCC[C@@H](N)C3)nc12 ?
Return: 23.3

Enquiry: And what about the molecule N#Cc1ccccc1Cn1c(N2CCC[C@@H](N)C2)nc2c(CO)csc2c1=O ?
Return: 22.5

###

Kindly supply the reported food consumption values for the records listed here.
test: Safety evaluation: single dose 100 mg/kg by gavage, one week observation; type: in vivo, ICR mouse; conditions: normal ICR mouse, 100 mg/kg single dose, 5 d after administration
# value in g · day^−1 · cage^−1; strip the unit string

Enquiry: food consumption for COC(=O)c1csc2c(=O)n(Cc3ccccc3C#N)c(N3CCC[C@@H](N)C3)nc12 [DC291009] ?
Return: 22.2

Enquiry: And what about the compound COC(=O)c1cc2nc(N3CCCC(N)C3)n(Cc3ccccc3C#N)c(=O)c2s1 (stereo not shown) [DC291407] ?
Return: 22.3

Enquiry: And what about the compound N#Cc1ccccc1Cn1c(N2CCC[C@@H](N)C2)nc2c(CO)csc2c1=O [DC291004] ?
Return: 21.9

Enquiry: And what about the compound N#Cc1ccccc1Cn1c(N2CCC[C@@H](N)C2)nc2cc(C(Br)Br)sc2c1=O [DC291411] ?
Return: 17.7

###

Kindly supply the reported pIC50 values for the records listed here.
target: human DPP IV (Homo sapiens, UniProt P27487); construct: extracellular fragment of protease DPP IV (aa29-766); made in house; host or cells: baculovirus expression system Bac-to-Bac; test: DPP IV activity screening (Ala-Pro-AMC fluorescence); assay type: biochemical
Sequence (P27487 29-766): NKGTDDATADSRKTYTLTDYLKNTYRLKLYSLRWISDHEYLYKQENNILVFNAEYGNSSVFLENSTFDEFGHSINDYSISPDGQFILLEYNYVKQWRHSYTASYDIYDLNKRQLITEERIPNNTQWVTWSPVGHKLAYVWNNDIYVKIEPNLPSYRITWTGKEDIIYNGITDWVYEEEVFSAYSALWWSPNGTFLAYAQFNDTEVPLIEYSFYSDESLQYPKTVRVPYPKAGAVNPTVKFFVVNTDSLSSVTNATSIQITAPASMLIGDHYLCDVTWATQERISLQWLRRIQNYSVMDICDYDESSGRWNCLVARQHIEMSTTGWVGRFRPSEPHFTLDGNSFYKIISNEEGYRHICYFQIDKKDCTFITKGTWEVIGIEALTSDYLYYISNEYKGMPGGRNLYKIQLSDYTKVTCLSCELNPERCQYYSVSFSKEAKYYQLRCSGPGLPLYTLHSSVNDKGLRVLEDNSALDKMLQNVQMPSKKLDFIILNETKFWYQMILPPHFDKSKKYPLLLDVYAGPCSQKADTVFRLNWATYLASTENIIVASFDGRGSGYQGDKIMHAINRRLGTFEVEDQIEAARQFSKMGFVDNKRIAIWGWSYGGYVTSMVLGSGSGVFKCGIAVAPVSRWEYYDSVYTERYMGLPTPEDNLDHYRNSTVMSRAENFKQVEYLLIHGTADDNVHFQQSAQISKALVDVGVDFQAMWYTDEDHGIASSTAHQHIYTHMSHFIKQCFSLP
Note on pIC50: it is the negative log10 of concentration, concentration in mol/L.

Enquiry: pIC50 for N#Cc1ccccc1Cn1c(N2CCC[C@@H](N)C2)nc2cc(CN3CCOCC3)sc2c1=O [Compound 95] ?
Return: 7.23

Enquiry: And what about the compound N#Cc1ccccc1Cn1c(N2CCC[C@@H](N)C2)nc2c(C(=O)NC3CCOCC3)csc2c1=O [Compound 81] ?
Return: 7.70

Enquiry: And what about the compound N#Cc1ccccc1Cn1c(N2CCC[C@@H](N)C2)nc2cc(C(=O)NCc3ccc(C(F)(F)F)cc3)sc2c1=O [Compound 103] ?
Return: 7.27

Enquiry: And what about the compound N#Cc1ccccc1Cn1c(N2CCC[C@@H](N)C2)nc2cc(C(N)=O)sc2c1=O [Compound 97] ?
Return: 7.69

Enquiry: And what about the compound N#Cc1ccccc1Cn1c(N2CCC[C@@H](N)C2)nc2cc(C(=O)NC3CC3)sc2c1=O [Compound 40] ?
Return: 7.74

Enquiry: And what about the compound N#Cc1ccccc1Cn1c(N2CCC[C@@H](N)C2)nc2cc(CO)sc2c1=O [Compound 28] ?
Return: 7.99

Enquiry: And what about the compound COCCCNC(=O)c1cc2nc(N3CCC[C@@H](N)C3)n(Cc3ccccc3C#N)c(=O)c2s1 [Compound 112] ?
Return: 7.62

Enquiry: And what about the compound N#Cc1ccccc1Cn1c(N2CCC[C@@H](N)C2)nc2c(C(=O)N3CCCC3)csc2c1=O [Compound 76] ?
Return: 7.09

Enquiry: And what about the compound N#Cc1ccccc1Cn1c(N2CCC[C@@H](N)C2)nc2cc(C(=O)N3CCS(=O)(=O)CC3)sc2c1=O [Compound 114] ?
Return: 7.65

Enquiry: And what about the compound N#Cc1ccccc1Cn1c(N2CCC[C@@H](N)C2)nc2c(C(=O)NCC3CC3)csc2c1=O [Compound 73] ?
Return: 8.05

Enquiry: And what about the compound N#Cc1ccccc1Cn1c(N2CCC[C@@H](N)C2)nc2cc(F)sc2c1=O [Compound 1] ?
Return: 7.46

Enquiry: And what about the compound CC(C)CNC(=O)c1cc2nc(N3CCC[C@@H](N)C3)n(Cc3ccccc3C#N)c(=O)c2s1 [Compound 116] ?
Return: 7.73

Enquiry: And what about the compound CCOC(=O)CCNC(=O)c1csc2c(=O)n(Cc3ccccc3C#N)c(N3CCC[C@@H](N)C3)nc12 [Compound 88] ?
Return: 7.83

Enquiry: And what about the compound N#Cc1ccccc1Cn1c(N2CCC[C@@H](N)C2)nc2cc(C(=O)NCCO)sc2c1=O [Compound 123] ?
Return: 7.70

Enquiry: And what about the compound COCCNC(=O)c1cc2nc(N3CCC[C@@H](N)C3)n(Cc3ccccc3C#N)c(=O)c2s1 [Compound 111] ?
Return: 7.72

Enquiry: And what about the compound N#Cc1ccccc1Cn1c(N2CCC[C@@H](N)C2)nc2c(C(=O)N[C@H]3CCOC3=O)csc2c1=O [Compound 92] ?
Return: 7.66

Enquiry: And what about the compound N#Cc1ccccc1Cn1c(N2CCC[C@@H](N)C2)nc2cc(C(=O)NCC3CC3)sc2c1=O [Compound 106] ?
Return: 7.74

Enquiry: And what about the compound CC(=O)Nc1csc2c(=O)n(Cc3ccccc3C#N)c(N3CCC[C@@H](N)C3)nc12 [Compound 86] ?
Return: 7.68

Enquiry: And what about the compound N#Cc1ccccc1Cn1c(N2CCC[C@@H](N)C2)nc2cc(C(=O)N[C@H]3CCOC3=O)sc2c1=O [Compound 127] ?
Return: 7.61

Enquiry: And what about the compound CC(=O)OCc1cc2nc(N3CCC[C@@H](N)C3)n(Cc3ccccc3C#N)c(=O)c2s1 [Compound 96] ?
Return: 7.94

Enquiry: And what about the compound Cc1ccc(CNC(=O)c2cc3nc(N4CCC[C@@H](N)C4)n(Cc4ccccc4C#N)c(=O)c3s2)cc1 [Compound 122] ?
Return: 7.58

Enquiry: And what about the compound N#Cc1ccccc1Cn1c(N2CCC[C@@H](N)C2)nc2cc(C(=O)N3CCCCC3)sc2c1=O [Compound 108] ?
Return: 7.93

Enquiry: And what about the compound COC(=O)C1CCN(Cc2csc3c(=O)n(Cc4ccccc4C#N)c(N4CCC[C@@H](N)C4)nc23)CC1 [Compound 54] ?
Return: 6.62

Enquiry: And what about the compound CCOC(=O)C1CCN(C(=O)c2cc3nc(N4CCC[C@@H](N)C4)n(Cc4ccccc4C#N)c(=O)c3s2)CC1 [Compound 129] ?
Return: 7.47

Enquiry: And what about the compound N#Cc1ccccc1Cn1c(N2CCC[C@@H](N)C2)nc2c(C(=O)NCc3ccc(C(F)(F)F)cc3)csc2c1=O [Compound 68] ?
Return: 7.64

Enquiry: And what about the compound N#Cc1ccccc1Cn1c(N2CCC[C@@H](N)C2)nc2c(Cl)c(Cl)sc2c1=O [Compound 10] ?
Return: 7.05

Enquiry: And what about the compound CN(C)C(=O)c1csc2c(=O)n(Cc3ccccc3C#N)c(N3CCC[C@@H](N)C3)nc12 [Compound 63] ?
Return: 7.56

Enquiry: And what about the compound N#Cc1ccccc1Cn1c(N2CCC[C@@H](N)C2)nc2c(C(=O)NC3CC3)csc2c1=O [Compound 65] ?
Return: 7.52

Enquiry: And what about the compound CCOC(=O)CNC(=O)c1csc2c(=O)n(Cc3ccccc3C#N)c(N3CCC[C@@H](N)C3)nc12 [Compound 58] ?
Return: 8.06

Enquiry: And what about the compound N#Cc1ccccc1Cn1c(N2CCC[C@@H](N)C2)nc2c(C(=O)NCC3COC3)csc2c1=O [Compound 82] ?
Return: 7.18

The origin of these recorded values is patent US9045491B2.
